# protocol.text: cell cytotoxicity in a cell viability assay (CC50)
# Type: cell-based
# condition.notes: concentration required for 50% cell survival
# Description: As used herein, “CC50,” is intended to refer to the cell cytotoxicity to the concentration of a substance (e.g., a compound or a drug) that is required for 50% cell survival in a cell viability assay in vitro.
parameter.measured: CC50 (µM)
Give the quantity in µM, number only.

stdin: Give its CC50 value. Item: N#Cc1ccc(-c2cccc(-c3csc(NC(=O)c4cccnc4C(F)(F)F)n3)c2)cc1
stdout: 8.07

stdin: Which CC50 is listed for CSc1ncccc1C(=O)Nc1nc(-c2cccc(N3CCCC3=O)c2)cs1 ?
stdout: 39.4

###

# protocol.text: cell cytotoxicity in a cell viability assay (CC50)
# Assay type: cell-based
# condition.notes: concentration required for 50% cell survival
parameter.measured: CC50

stdin: Find the recorded CC50 belonging to CC(C)(C)c1cnc(C(=O)Nc2nc(-c3cccc(-c4ccc(C#N)cc4)c3)cs2)nc1 [Compound 8] and report it.
stdout: > 40 µM

stdin: CC50 lookup needed for CSc1ncccc1C(=O)Nc1nc(-c2cccc(N3CCNCC3)c2)cs1 [Compound 31] , thanks.
stdout: > 30 µM

stdin: Recorded CC50 for CSc1ncccc1C(=O)Nc1nc(-c2cccc(-c3ccc(C(=O)O)cc3)c2)cs1 [Compound 24] , please?
stdout: > 40 µM

stdin: State the recorded CC50 for this entry: CSc1ncccc1C(=O)Nc1nc(-c2cccc(-c3ccccn3)c2)cs1 [Compound 2]
stdout: > 30 µM

stdin: Form field: reported CC50 of CSc1ncccc1C(=O)Nc1nc(-c2cccc(Nc3ccc(C)c(C#N)c3)c2)cs1 [Compound 48]
stdout: > 40 µM

stdin: Given the compound CSc1ncccc1C(=O)Nc1nc(-c2cccc(Nc3ccc(C#N)cn3)c2)cs1 [Compound 51] , what is its reported CC50?
stdout: > 40 µM

stdin: Suppose we examine the compound CC(C)(C)c1ccc(C(=O)Nc2nc(-c3cccc(N4CCNCC4)c3)cs2)cc1 [Compound 30] ; what CC50 value has been reported?
stdout: 4.1 µM

stdin: What value of CC50 has been recorded for this entry: CSc1ncccc1C(=O)Nc1nc(-c2cc(Cl)cc(Nc3ccc(C#N)cc3)c2)cs1 [Compound 49]
stdout: > 40 µM

stdin: Can you share its CC50? I mean this compound: CSc1ncccc1C(=O)Nc1nc(-c2cccc(Nc3cccc(C#N)c3)c2)cs1 [Compound 38]
stdout: > 40 µM

stdin: Data request, read-out CC50, for CSc1ncccc1C(=O)Nc1nc(-c2cccc(Nc3ccccc3C#N)c2)cs1 [Compound 39]
stdout: > 40 µM

stdin: Entry CSc1ncccc1C(=O)Nc1nc(-c2cccc(-c3ccc(F)nc3)c2)cs1 [Compound 16] has what CC50?
stdout: > 30 µM

stdin: Consider the compound CSc1ncccc1C(=O)Nc1nc(-c2cccc(Oc3ccccc3)c2)cs1 [Compound 36] and give its measured CC50.
stdout: > 40 µM

stdin: Consider the compound CSc1ncccc1C(=O)Nc1nc(-c2cc(F)cc(-c3ccc(C#N)cc3)c2)cs1 [Compound 19] and give its measured CC50.
stdout: > 30 µM

stdin: So what's the measured CC50 for this one? CSc1ncccc1C(=O)Nc1nc(-c2cccc(-c3ccncc3)c2)cs1 [Compound 3]
stdout: > 40 µM

stdin: Param item = CSc1ncccc1C(=O)Nc1nc(-c2cccc(Nc3ccc(CN)cc3)c2)cs1 [Compound 45] ; retrieve measured CC50.
stdout: 12.8 µM

stdin: State the recorded CC50 for this entry: CSc1ncccc1C(=O)Nc1nc(-c2cccc(-c3ccc(CN)cc3)c2)cs1 [Compound 26]
stdout: > 40 µM

stdin: // query CC50 value for entry CSc1ncccc1C(=O)Nc1nc(-c2cccc(-c3ccc(F)cn3)c2)cs1 [Compound 15]
stdout: > 40 µM

###

Would you kindly list CC50 for each of these compounds?
# protocol.text: cell cytotoxicity in a cell viability assay (CC50)
# Type: cell-based
# condition.notes: concentration required for 50% cell survival

stdin: Report CC50 for CSc1ncccc1C(=O)Nc1nc(-c2cccc(Nc3cccc(C(F)(F)F)c3)c2)cs1 [Compound 40] please.
stdout: > 40 µM

stdin: Form field: reported CC50 of N#Cc1ccc(-c2cccc(-c3csc(NC(=O)c4cccnc4SC(F)F)n3)c2)cc1 [Compound 6]
stdout: > 30 µM

stdin: Query (compound): COC(=O)C12CC(C(=O)Nc3nc(-c4cccc(Nc5ccc(C#N)cc5)c4)cs3)(C1)C2 [Compound 43] ; field requested: CC50
stdout: 13 µM

stdin: Give its CC50 value. Item: CC(C)(C)c1ccc(C(=O)Nc2nc(-c3cccc(Nc4ccc(C#N)cc4)c3)cs2)nc1 [Compound 41]
stdout: > 40 µM

stdin: Need CC50 of CSc1ncccc1C(=O)Nc1nc(-c2cncc(-c3ccc(C#N)cc3)c2)cs1 [Compound 12] , thanks.
stdout: > 40 µM

stdin: Which measured CC50 value corresponds to CSc1ncccc1C(=O)Nc1nc(-c2cccc(N3CCN(C(C)=O)CC3)c2)cs1 [Compound 32] ?
stdout: > 40 µM

stdin: Entry N#Cc1ccc(Nc2cccc(-c3csc(NC(=O)C45CC(C#N)(C4)C5)n3)c2)cc1 [Compound 52] : reported CC50 = ?
stdout: 9 µM

stdin: Reported CC50, compound COc1c(F)cc(C(=O)Nc2nc(-c3cccc(-c4ccc(C#N)cc4)c3)cs2)cc1F [Compound 10] : ____
stdout: > 30 µM

###

# protocol.text: cell cytotoxicity in a cell viability assay (CC50)
# Type: cell-based
# condition.notes: concentration required for 50% cell survival
# From the text: As used herein, “CC50,” is intended to refer to the cell cytotoxicity to the concentration of a substance (e.g., a compound or a drug) that is required for 50% cell survival in a cell viability assay in vitro.
parameter.measured: CC50

stdin: I'd like to know its CC50. The molecule in question is CSc1ncccc1C(=O)Nc1nc(-c2cc(C(=O)O)cc(-c3ccc(C#N)cc3)c2)cs1 [Compound 21]
stdout: > 40 µM

stdin: What does the record list as CC50 for CSc1ncccc1C(=O)Nc1nc(-c2cccc(-c3ccc(C#N)cc3)n2)cs1 [Compound 13] ?
stdout: 16.3 µM

stdin: Please look up its CC50: COC(=O)c1cc(-c2ccc(C#N)cc2)cc(-c2csc(NC(=O)c3cccnc3SC)n2)c1 [Compound 20]
stdout: 17.6 µM

stdin: Which value of CC50 has been reported for COC1CCC(C(=O)Nc2nc(-c3cccc(Nc4ccc(C#N)cc4)c3)cs2)CC1 (centres unmarked) [Compound 50] in the records?
stdout: 12.4 µM

stdin: Item under review: CSc1ncccc1C(=O)Nc1nc(-c2cc(Nc3ccc(C#N)cc3)cc(N3CCOCC3)c2)cs1 [Compound 47] . Reported CC50?
stdout: > 40 µM

stdin: What value of measured CC50 is listed for N#Cc1ccc(Nc2cccc(-c3csc(NC(=O)C45CC(C(=O)O)(C4)C5)n3)c2)cc1 [Compound 42] ?
stdout: > 40 µM

stdin: So what does the record say about CC50 for CSc1ncccc1C(=O)Nc1nc(-c2cccc(Nc3ccc(C#N)cc3)c2)cs1 [Compound 37] ?
stdout: > 40 µM

stdin: Requested read-out: CC50. Entry: CSc1ncccc1C(=O)Nc1nc(-c2cc(-c3ccc(C#N)cc3)ccc2F)cs1 [Compound 17]
stdout: 25 µM

stdin: May I ask what CC50 has been recorded for COc1ccc(-c2ccc(C#N)cc2)cc1-c1csc(NC(=O)c2cccnc2SC)n1 [Compound 18] ?
stdout: > 40 µM

stdin: Entry CSc1ncccc1C(=O)Nc1nc(-c2cccc(-c3ccc(C#N)cn3)c2)cs1 [Compound 14] has what CC50?
stdout: > 40 µM

stdin: What value of CC50 has been recorded for this entry: CSc1ncccc1C(=O)Nc1nc(-c2cccc(N3CCN(S(C)(=O)=O)CC3)c2)cs1 [Compound 33]
stdout: > 40 µM

stdin: Reported CC50, molecule COC(=O)c1ccc(-c2cccc(-c3csc(NC(=O)c4cccnc4SC)n3)c2)cc1 [Compound 23] : ____
stdout: > 40 µM

stdin: Reported CC50, molecule CSc1ncccc1C(=O)Nc1nc(-c2cccc(-c3ccc(C(N)=O)cc3)c2)cs1 [Compound 25] : ____
stdout: 17.9 µM

stdin: Quick check: CC50 of CSc1ncccc1C(=O)Nc1nc(-c2cccc(-c3ccc(C#N)c(O)c3)c2)cs1 [Compound 22] ?
stdout: > 30 µM

###

# protocol.text: cell cytotoxicity in a cell viability assay (CC50)
# Type: cell-based
# condition.notes: concentration required for 50% cell survival
parameter.measured: CC50

stdin: I am curious: what CC50 value has been reported for CC(C)(C)c1ccc(C(=O)Nc2nc(-c3cccc(-c4ccc(C#N)cc4)c3)cs2)cc1 [Compound 9] ?
stdout: > 40 µM

stdin: Please give the measured CC50 for this molecule: CC(C)(C#N)c1ccc(C(=O)Nc2nc(-c3cccc(Nc4ccc(C#N)cc4)c3)cs2)cc1 [Compound 44]
stdout: > 40 µM

stdin: Recorded CC50 for CSc1ncccc1C(=O)Nc1nc(-c2cccc(-c3ccc(C#N)cc3)c2)cs1 [Compound 4] , please?
stdout: > 40 µM

stdin: Which CC50 value belongs to CC(C)(C)c1ccc(C(=O)Nc2nc(-c3cccc(-c4ccc(CN)cc4)c3)cs2)cc1 [Compound 27] ?
stdout: 9.02 µM

stdin: I have this molecule here, N#Cc1ccc(-c2cccc(-c3csc(NC(=O)C4CCNCC4)n3)c2)cc1 [Compound 11] , and I need its recorded CC50.
stdout: > 30 µM

stdin: Any idea what its CC50 is? The molecule is CSc1ncccc1C(=O)Nc1nc(-c2cccc(N3CCOCC3)c2)cs1 [Compound 34]
stdout: > 40 µM

stdin: Fill blank: measured CC50 of the molecule COc1cc(Nc2cccc(-c3csc(NC(=O)c4cccnc4SC)n3)c2)ccc1C#N [Compound 46] is ____.
stdout: > 40 µM

stdin: Entry COc1ncc(-c2cccc(-c3csc(NC(=O)c4cccnc4SC)n3)c2)cn1 [Compound 28] has what CC50?
stdout: > 40 µM
